EXPERIMENT_DESCRIPTION: NCI Yeast Anticancer Drug Screen. Data for the mlh1 rad18 strain (AID 175)
EXPERIMENTAL_PARAMETERS: S. cerevisiae mlh1 rad18 strain growth inhibition; at 5.0 µM (retest, dose inferred, filed as 0.5); stronger effect = higher value
About 79,000 compounds went through this panel and 15% of them were active in at least one assay; those are over-represented in the sample as a whole.
ENDPOINT_LABEL: growth inhibition (%)
Number only, in %; omit the unit.

Worked cases, growth inhibition given:
{"columns": ["MOLECULE", "VALUE_MEASURED"],
 "data": [
  ["CC1=C(C(=O)Nc2ccccc2)C(c2cccc([N+](=O)[O-])c2)C(C(=O)Nc2ccccc2)=C(C)N1", -7],
  ["CC1=C(C(=O)Nc2cc(O)ccc2O)C(c2cccc([N+](=O)[O-])c2)C(C(=O)Nc2cc(O)ccc2O)=C(C)N1", -9],
  ["COCCN1C(=O)C2c3[nH]c4ccccc4c3C3CCC(C(C)(C)C)CC3C2C1=O (centres undefined)", 4],
  ["CCCCCCCCCCCCCCCCNC(=S)N/C=C(/C#N)C(=O)OC", 57]
]}

What value of measured growth inhibition is listed for `CCOC(=O)/C(=C/c1ccccn1)C(=O)c1ccccc1` ?
53

Field entry: COc1ccc([C@H]2c3cc4c(cc3OC(O)(CO)[C@H]2C(=O)O)OCO4)c(OC)c1 (some centres undefined) (tested in a mixture with another compound)
6

Moving on to the next molecule: `CCCCN(CCCC)Cc1cc(Nc2c3ccc(Cl)cc3nc3ccc(OC)cc23)ccc1O`
7

Now try `CC(=O)/C(=C\c1ccccc1Cl)C(=O)CCN(C)C` .
-17

Continue with O=C(Nc1ccc(F)c([N+](=O)[O-])c1)NC(Cc1ccccc1)c1ccccc1 (centres undefined)
26

* * *

EXPERIMENT_DESCRIPTION: NCI Yeast Anticancer Drug Screen. Data for the mec2-1 strain (AID 157)
EXPERIMENTAL_PARAMETERS: S. cerevisiae mec2-1 strain, at 50.0 µM
Compounds without any hit were thinned out: in the full panel of roughly 79,000, 15% have a hit. Active and inactive are the calls of the source. Rule as the data show it: active = growth inhibition above about 70%; inactive = the rest.
Outcomes you can answer with include only these: true (active), false (inactive)

{"columns": ["COMPOUND", "CATEGORY_LABEL"],
 "data": [
  ["COc1ccc(C2C3=C(CCCC3=O)Oc3cc4c(cc32)OCO4)cc1 (configuration not stated)", "true"],
  ["COc1cc(C2=N/C(=C\\c3ccccc3O)C(=O)O2)cc(OC)c1OC", "false"],
  ["CC(=O)/C=C1\\C(=O)Nc2ccccc21", "true"],
  ["c1ccc2c(c1)Nc1cc3ccccc3cc1N2", "false"],
  ["CC(=O)C1C(S)CC2C3CC=C4CC(O)CCC4(C)C3CCC21C (configuration not stated)", "true"]
]}

Please state the recorded outcome for this compound: `O=C(O)Cc1ccccc1CCc1ccccc1Cl`
true

Now consider COc1ccccc1C1SC(c2ccccc2)(c2ccccc2)OC1=O (configuration not stated) and answer again.
false

* * *

EXPERIMENT_DESCRIPTION: NCI Yeast Anticancer Drug Screen. Data for the sgs1 mgt1 strain (AID 161);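 also: 0% = growth of cultures given vehicle only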
EXPERIMENTAL_PARAMETERS: S. cerevisiae sgs1 mgt1 strain, at 50.0 µM (retest, dose inferred, filed as 5.0), stronger effect = higher value
Compounds without any hit were thinned out: in the full panel of roughly 79,000, 15% have a hit.
ENDPOINT_LABEL: growth inhibition (%)
Give your result in % as a bare value.

As a guide, the following entries are already answered.
{"columns": ["COMPOUND", "VALUE_MEASURED"],
 "data": [
  ["CC(=O)Oc1c(Cl)cc(Cl)cc1C(c1cc(Cl)cc(Cl)c1OC(C)=O)C(Cl)(Cl)Cl", -5],
  ["O=C1c2ccccc2C(=O)c2sccc21", 62],
  ["CCCCCCCCCCCCCCCCC1CCc2ccccc21 (stereo not given)", 13],
  ["CSC(=S)NNC(C)c1nccc2ccccc12 (stereo not given)", 97],
  ["CC(/C(=N/NC(=O)C(N)=O)c1c(Cl)ccc(Cl)c1O)C1(O)C(=O)Nc2ccccc21 (stereo not given)", 53],
  ["CC(N)C(O)c1ccc2ccc3ccccc3c2c1 (stereo not given)", 96],
  ["Cc1ccnc(NC(c2ccccc2)c2ccc3cccnc3c2O)c1 (stereo not given)", 95],
  ["CC(C)(c1ccccc1)c1ccc2[nH]c(C(C)(C)c3ccccc3)c(CC(=O)O)c2c1", 96]
]}

Return reported growth inhibition; argument: `CC(=O)OCC(=O)[C@@]1(O)CC[C@H]2[C@@H]3CCC4=CC(=O)C=C[C@]4(C)[C@@]3(F)[C@@H](O)C[C@@]21C`
59

Moving on to the next compound: `O=[N+]([O-])c1ccc(-[n+]2ccc3ccccc3c2)c([N+](=O)[O-])c1`
79

The reported numbers originate from PubChem BioAssay (NCI).
